Where do the numbers come from? From PubChem BioAssay AID2060620.

- System: 328373-195-R-J1-PDC complex spheroids, viability % test/control;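 further: spheroids exposed to the agents for 7 days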
- measurement.description: Anticancer human tumor 328373-195-R-J1-PDC patient-derived head and neck squamous carcinoma cell line growth inhibition [CLK]
- reported.conditions: second compound 0.1 µM; first compound 1 µM; hits give low values
observable: viability, T/C (%)
Just the number in %, nothing appended.

// known answers, use as guide
1) COc1cccc2c1C(=O)c1c(O)c3c(c(O)c1C2=O)CC(O)(C(=O)CO)CC3OC1CC(N)C(O)C(C)O1 (stereo unspecified) + CN1CCN(c2cc(C(=O)Nc3cc4cc(-c5cnn(C)c5)ccc4cn3)ccn2)CC1 ... 0.19
2) COc1ccc([C@@H](O)c2cc(-c3ncnc4cc(N5CCOCC5)ccc34)c(F)cc2Cl)nn1 + CN1CCN(c2cc(C(=O)Nc3cc4cc(-c5cnn(C)c5)ccc4cn3)ccn2)CC1 ... 96.7
3) Nc1ccn(C2OC(CO)C(O)C2(F)F)c(=O)n1 (stereo unspecified) + CNC(=O)c1ccc(Nc2nc(OC3CCCC3)c3c(-c4ccc5nc(C)oc5c4)c[nH]c3n2)c(OC)c1 ... 2.08

# viability, T/C (molecule: CCCS(=O)(=O)Nc1ccc(F)c(C(=O)c2c[nH]c3ncc(-c4ccc(Cl)cc4)cc23)c1F + CN1CCN(c2cc(C(=O)Nc3cc4cc(-c5cnn(C)c5)ccc4cn3)ccn2)CC1 ) is 86.6

What the record says about Nc1ccn(C2OC(CO)C(O)C2(F)F)c(=O)n1 (stereo unspecified) + CN1CCN(c2cc(C(=O)Nc3cc4cc(-c5cnn(C)c5)ccc4cn3)ccn2)CC1 : viability, T/C is 3.59

For Nc1ccccc1NC(=O)c1ccc(CNC(=O)OCc2cccnc2)cc1 + CNC(=O)c1ccc(Nc2nc(OC3CCCC3)c3c(-c4ccc5nc(C)oc5c4)c[nH]c3n2)c(OC)c1 the molecule record lists viability, T/C as 12.9
